Items are presented alongside their recorded EC50.
# study.system: Gal4-RORγ-LBD (Homo sapiens)
# Construct: expressed in transfected cells
# Sequence (P51449 269-508 limits assumed): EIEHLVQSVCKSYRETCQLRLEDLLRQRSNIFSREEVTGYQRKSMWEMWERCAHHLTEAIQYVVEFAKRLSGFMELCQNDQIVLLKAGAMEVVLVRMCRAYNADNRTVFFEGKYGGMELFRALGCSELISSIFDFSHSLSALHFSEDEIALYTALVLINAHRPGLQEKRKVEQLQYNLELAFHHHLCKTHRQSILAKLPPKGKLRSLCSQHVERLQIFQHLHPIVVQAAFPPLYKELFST
# method.notes: Gal4-RORγ Luciferase Reporter Assay in HEK-293T Cells
# Assay type: cell-based
# assay.conditions: HEK-293 cells, luciferase reporter, with ursolic acid
# Text: Assay procedures and results are described below. […] The cells were harvested as described above, counted, and centrifuged to obtain the desired number of cells, then re-suspended in complete growth media at 0.75×10^6 cells/mL. […] The luciferase intensity was read on an Envision plate reader (Perkin Elmer). […] The Max Response is the upper plateau in the signal as determined by line-fit using a 4-parameter logistic model in PRISM (GraphPad).

Give the measured EC50 for "CCOc1sc(CC)nc1S(=O)(=O)N1C[C@H](CCC(=O)O)Oc2ccc(/C=C(\C)c3c(F)cccc3Cl)cc21"
< 500 nM

Give the measured EC50 for "COC(=O)CC[C@H]1CN(S(=O)(=O)c2cccc(C(F)(F)F)c2)c2cc(/C(C)=C/c3c(F)cccc3Cl)ccc2O1"
500 to 5000 nM

Give the measured EC50 for CCOC(=O)[C@@H]1Cc2ccc(OC3CCc4ccccc43)cc2N(S(=O)(=O)c2ccc(F)c(OC)c2)[C@@H]1C (mixture of isomers)
< 500 nM

Give the measured EC50 for CCOc1nn(CC)cc1S(=O)(=O)N1C[C@H](CCC(=O)OC)Oc2ccc(/C=C/c3ccc(Cl)cc3)cc21 [Example 89DA]
> 10000 nM

Give the measured EC50 for "CCOc1nn2c(c1S(=O)(=O)N1C[C@H](CCC(=O)O)Oc3ccc(/C=C(\C)c4c(F)cccc4Cl)cc31)CCCC2"
< 500 nM

Continuing:
Give the measured EC50 for O=C(O)CC[C@H]1CN(S(=O)(=O)c2cn(C3CC3)nc2OCCO)c2cc(/C=C/c3c(Cl)cccc3C(F)(F)F)ccc2O1 [Example 89EG]
500 to 5000 nM

Give the measured EC50 for COC(=O)CC[C@H]1CN(S(=O)(=O)c2cccc(C(F)(F)F)c2)c2cc(/C=C/c3ncccc3F)ccc2O1 [Example 89DG]
> 10000 nM

###

# study.system: Gal4-RORγ-LBD (Homo sapiens, UniProt P51449)
# Construct: expressed in transfected cells
# Sequence (P51449 269-508 limits assumed): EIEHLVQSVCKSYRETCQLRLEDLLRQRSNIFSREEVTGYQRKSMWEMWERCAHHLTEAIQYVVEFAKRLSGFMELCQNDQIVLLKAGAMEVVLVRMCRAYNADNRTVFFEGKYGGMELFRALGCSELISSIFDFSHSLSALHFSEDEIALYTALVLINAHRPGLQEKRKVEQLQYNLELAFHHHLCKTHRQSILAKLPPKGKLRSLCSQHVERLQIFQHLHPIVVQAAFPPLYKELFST
# method.notes: Gal4-RORγ Luciferase Reporter Assay in HEK-293T Cells
# Assay type: cell-based
# assay.conditions: HEK-293 cells, luciferase reporter, in presence of ursolic acid
pEC50: −log10 of the molar value.
readout.name: pEC50

A selection of reference data follows.
Enter recorded pEC50 with Gal4-RORγ-LBD (Homo sapiens, UniProt P51449) for C/C(=C\c1ccc2c(c1)N(S(=O)(=O)c1cccc(C(F)(F)F)c1)[C@H](C)[C@H](NC(=O)N(C)C)C2)c1c(F)cccc1Cl [Example 146] here.
< 5.00

Enter recorded pEC50 with Gal4-RORγ-LBD (Homo sapiens, UniProt P51449) for C/C(=C\c1ccc2c(c1)N(S(=O)(=O)c1cccc(C(F)(F)F)c1)C[C@H](CCC(=O)N1CC[C@H](C(=O)O)C1)O2)c1c(F)cccc1Cl [Example 129C] here.
> 6.30

Enter recorded pEC50 with Gal4-RORγ-LBD (Homo sapiens, UniProt P51449) for COc1cc(S(=O)(=O)N2C[C@H](CCNC(=O)[C@H](C)O)Oc3ccc(/C=C(\C)c4c(F)cccc4Cl)cc32)ccc1F [Example 116D] here.
> 6.30

Enter recorded pEC50 with Gal4-RORγ-LBD (Homo sapiens, UniProt P51449) for CC(O[C@@H]1Cc2ccc(OCc3c(F)cccc3Cl)cc2N(S(=O)(=O)c2cccc(C(F)(F)F)c2)C1)C(=O)O (stereo partly drawn) [Example 173C] here.
> 6.30

Enter recorded pEC50 with Gal4-RORγ-LBD (Homo sapiens, UniProt P51449) for COc1cc(S(=O)(=O)N2c3cc(OCc4c(F)cccc4Cl)ccc3C=C(CN)[C@H]2C)ccc1F [Example 139] here.
5.30 to 6.30

Enter recorded pEC50 with Gal4-RORγ-LBD (Homo sapiens, UniProt P51449) for CCOC(=O)C1CCN(CC[C@H]2CN(S(=O)(=O)c3cccc(C(F)(F)F)c3)c3cc(/C=C(\C)c4c(F)cccc4Cl)ccc3O2)CC1 [Example 119F] here.
< 5.00

Enter recorded pEC50 with Gal4-RORγ-LBD (Homo sapiens, UniProt P51449) for C/C(=C\c1ccc2c(c1)N(S(=O)(=O)c1cccc(C(F)(F)F)c1)C[C@H](CCN1CCS(=O)(=O)CC1)O2)c1c(F)cccc1Cl [Example 119G] here.
> 6.30

Enter recorded pEC50 with Gal4-RORγ-LBD (Homo sapiens, UniProt P51449) for C/C(=C\c1ccc2c(c1)N(S(=O)(=O)c1cccc(C(F)(F)F)c1)C[C@H](CCC(=O)N1CCC(C)(C(=O)O)CC1)O2)c1c(F)cccc1Cl [Example 129N] here.
> 6.30

Continuing:
Enter recorded pEC50 with Gal4-RORγ-LBD (Homo sapiens, UniProt P51449) for O=C(O)C1CCN(C(=O)CC[C@H]2CN(S(=O)(=O)c3cccc(C(F)(F)F)c3)c3cc(/C=C/c4c(F)cccc4Cl)ccc3O2)CC1 [Example 129O] here.
> 6.30

Enter recorded pEC50 with Gal4-RORγ-LBD (Homo sapiens, UniProt P51449) for C/C(=C\c1ccc2c(c1)N(S(=O)(=O)c1cccc(C(F)(F)F)c1)C[C@H](NS(C)(=O)=O)C2)c1c(F)cccc1Cl [Example 116H] here.
> 6.30

Enter recorded pEC50 with Gal4-RORγ-LBD (Homo sapiens, UniProt P51449) for O=C(O)C1CN(C(=O)CC[C@H]2CN(S(=O)(=O)c3cccc(C(F)(F)F)c3)c3cc(/C=C/c4c(Cl)cccc4C(F)(F)F)ccc3O2)C1 [Example 129G] here.
> 6.30

Enter recorded pEC50 with Gal4-RORγ-LBD (Homo sapiens, UniProt P51449) for COc1cc(S(=O)(=O)N2c3cc(OCc4c(F)cccc4Cl)ccc3C[C@@H](CNC(C)=O)[C@H]2C)ccc1F [Example 152] here.
> 6.30

###

Items are presented alongside their recorded pEC50.
# study.system: RORγ-LBD (Homo sapiens)
# Construct: made in house; host or cells: SF9 cells (baculovirus); used as diluted lysate
# Sequence (P51449 269-508 limits assumed): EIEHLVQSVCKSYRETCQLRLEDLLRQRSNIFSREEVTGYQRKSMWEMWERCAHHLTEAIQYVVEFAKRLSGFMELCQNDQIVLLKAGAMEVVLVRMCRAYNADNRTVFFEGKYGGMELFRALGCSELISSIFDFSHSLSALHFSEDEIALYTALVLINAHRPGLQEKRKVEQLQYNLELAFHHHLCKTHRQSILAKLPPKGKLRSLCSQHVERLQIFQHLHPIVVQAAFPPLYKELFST
# method.notes: RORγ-Ligand Binding Domain (LBD) TR-FRET Assay
# Assay type: biochemical
# assay.conditions: RORγ-LBD TR-FRET assay
pEC50: −log10 of the molar value.

Give the measured pEC50 for C/C(=C\c1ccc2c(c1)N(S(=O)(=O)c1cccc(C(F)(F)F)c1)C[C@H](OCC(=O)O)C2)c1c(F)cccc1Cl [Example 173E]
> 6.30

Give the measured pEC50 for C[C@@H]1[C@H](NC(=O)Nc2ccccn2)Cc2ccc(/C=C/c3c(F)cccc3C(F)(F)F)cc2N1S(=O)(=O)c1cccc(C(F)(F)F)c1 [Example 116M]
5.30 to 6.30

Give the measured pEC50 for COC(=O)CCC1CC(S(=O)(=O)c2cccc(C(F)(F)F)c2)c2cc(OCc3c(F)cccc3Cl)ccc2O1 (stereo not drawn) [Example 186B]
> 6.30

Give the measured pEC50 for CC(C)(CC1CC(S(=O)(=O)c2cccc(C(F)(F)F)c2)c2cc(OCc3c(F)cccc3Cl)ccc2O1)C(=O)O (stereo not drawn) [Example 186E]
> 6.30

Give the measured pEC50 for C/C(=C\c1ccc2c(c1)C(S(=O)(=O)c1cccc(C(F)(F)F)c1)CC(CNC(=O)C1CC1)O2)c1c(F)cccc1Cl (stereo not drawn)
> 6.30

Continuing:
Give the measured pEC50 for "C/C(=C\c1ccc2c(c1)N(S(=O)(=O)c1cccc(C(F)(F)F)c1)C[C@@H](O)C2)c1c(F)cccc1Cl"
> 6.30

The values you see were collected from patent US9896441B2.
